- testedOn: Arginase-1 (Homo sapiens, UniProt P05089)
- Sequence (P05089 whole entry): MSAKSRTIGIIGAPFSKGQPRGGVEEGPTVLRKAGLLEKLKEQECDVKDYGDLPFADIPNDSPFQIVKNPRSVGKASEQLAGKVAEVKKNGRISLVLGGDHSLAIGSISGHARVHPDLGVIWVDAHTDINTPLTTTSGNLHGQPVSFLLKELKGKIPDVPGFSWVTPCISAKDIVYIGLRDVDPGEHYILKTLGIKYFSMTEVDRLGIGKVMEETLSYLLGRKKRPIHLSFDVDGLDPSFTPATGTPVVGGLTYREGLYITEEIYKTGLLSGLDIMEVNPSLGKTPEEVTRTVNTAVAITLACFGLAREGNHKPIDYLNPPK
- test: Inhibition of human recombinant full length arginase 1 expressed in Escherichia coli BL21(DE3) by fixed point assay
pKi: −log10 of the molar value.
quantityKind: pKi

> print(dat)
                                   molecule  recordedresult
1  Nc1ncc(CCCC(N)C(=O)O)[nH]1 (stereo unspecified)          < 0.10
